Quick record: IC50, PI3Kδ (Homo sapiens).
measureName: IC50 (nM)

Example entries begin here.
C[C@@H](C(N)=O)N(C)c1ccc2c(c1)OCCn1cc(N3C(=O)SC[C@H]3C(F)F)nc1-2 = 69
C[C@H](Nc1ccc2c(c1)OCCn1cc(N3C(=O)SC[C@H]3CC#N)nc1-2)C(N)=O = 71
C[C@H](Nc1ccc2c(c1)OCCn1cc(N3C(=O)N(C)C[C@H]3C(F)F)nc1-2)C(N)=O = 373
COC[C@H](Nc1ccc2c(c1)OCCn1cc(N3C(=O)SC[C@H]3C(F)F)nc1-2)C(N)=O = 139
C[C@H](Nc1ccc2c(c1)OCCn1cc(N3C(=O)CC[C@H]3C(F)F)nc1-2)C(N)=O = 190
C[C@H](Nc1ccc2c(c1)OCCn1cc(N3C(=O)CC[C@H]3CC#N)nc1-2)C(N)=O = 280

A = C[C@H](Nc1ccc2c(c1)OCCn1cc(N3CC(F)(F)COC3=O)nc1-2)C(N)=O
B = COC[C@H](Nc1ccc2c(c1F)OCCn1cc(N3C(=O)SC[C@H]3C(F)F)nc1-2)C(N)=O
C = NC(=O)[C@@H]1CCCN1c1ccc2c(c1)OCCn1cc(N3C(=O)SC[C@H]3C(F)F)nc1-2
Q: Which order do these items take when sorted by rising IC50? List them. The labels, placed in the requested order, form the answer.
Result: C, B, A
